Reported MIC values follow for various compounds
- System: Staphylococcus aureus
- ASSAY_TEXT: Antibacterial activity against Staphylococcus aureus Smith OC4172
- Assay type: functional
Give just the number in µg/mL; leave the unit off.

Below, each entry is followed by its recorded MIC result.
SMILES_NOTATION	VALUE
CC[C@H]1OC(=O)[C@H](C)C(=O)[C@H](C)[C@@H](O[C@@H]2O[C@H](C)C[C@H](N(C)C)[C@H]2O)[C@](C)(OC(=O)NC/C=C/c2cnc3ccccc3c2)C[C@@H](C)C(=O)[C@H](C)[C@H]2CC(=O)O[C@@]21C	0.5
CC[C@H]1OC(=O)[C@H](C)C(=O)[C@H](C)[C@@H](O[C@@H]2O[C@H](C)C[C@H](N(C)C)[C@H]2O)[C@](C)(OC(=O)NCc2ccc(-c3ccccn3)cc2)C[C@@H](C)C(=O)[C@H](C)[C@H]2CC(=O)O[C@@]21C	1
CC[C@H]1OC(=O)[C@H](C)C(=O)[C@H](C)[C@@H](O[C@@H]2O[C@H](C)C[C@H](N(C)C)[C@H]2O)[C@](C)(OC)C[C@@H](C)C(=O)[C@H](C)[C@H]2N(CCCCn3cnc(-c4cccnc4)c3)C(=O)O[C@]12C	0.12

Here is another compound to look at.
Query "CC[C@H]1OC(=O)[C@H](C)C(=O)[C@H](C)[C@@H](O[C@@H]2O[C@H](C)C[C@H](N(C)C)[C@H]2O)[C@](C)(OC(=O)NC/C=C/c2ccc(-c3ncccn3)cc2)C[C@@H](C)C(=O)[C@@H](C)[C@H]2CC(=O)O[C@@]21C" yields MIC of 2

---

Reported MIC values follow for various compounds
- System: Staphylococcus aureus
- ASSAY_TEXT: Antibacterial activity against Staphylococcus aureus Smith OC4172
- Type: functional
Give just the number in µg/mL; leave the unit off.

Below, each entry is followed by its recorded MIC result.
SMILES_NOTATION	VALUE
CC[C@H]1OC(=O)[C@H](C)C(=O)[C@H](C)[C@@H](O[C@@H]2O[C@H](C)C[C@H](N(C)C)[C@H]2O)[C@](C)(OC(=O)NCc2cnc3ccccc3c2)C[C@@H](C)C(=O)[C@H](C)[C@H]2CC(=O)O[C@@]21C	0.5
CC[C@H]1OC(=O)[C@H](C)C(=O)[C@H](C)[C@@H](O[C@@H]2O[C@H](C)C[C@H](N(C)C)[C@H]2O)[C@](C)(OC(=O)NC/C=C/c2cccnc2)C[C@@H](C)C(=O)[C@H](C)[C@H]2CC(=O)O[C@@]21C	1

Here is another compound to look at.
Query "CC[C@H]1OC(=O)[C@H](C)C(=O)[C@H](C)[C@@H](O[C@@H]2O[C@H](C)C[C@H](N(C)C)[C@H]2O)[C@](C)(OC(=O)NC/C=C/c2cncc3ccccc23)C[C@@H](C)C(=O)[C@H](C)[C@H]2CC(=O)O[C@@]21C" yields MIC of 0.5
